- study_system: human Bruton's Tyrosine Kinase (Btk) (Homo sapiens (Human), UniProt Q06187)
- Sequence (Q06187 whole entry): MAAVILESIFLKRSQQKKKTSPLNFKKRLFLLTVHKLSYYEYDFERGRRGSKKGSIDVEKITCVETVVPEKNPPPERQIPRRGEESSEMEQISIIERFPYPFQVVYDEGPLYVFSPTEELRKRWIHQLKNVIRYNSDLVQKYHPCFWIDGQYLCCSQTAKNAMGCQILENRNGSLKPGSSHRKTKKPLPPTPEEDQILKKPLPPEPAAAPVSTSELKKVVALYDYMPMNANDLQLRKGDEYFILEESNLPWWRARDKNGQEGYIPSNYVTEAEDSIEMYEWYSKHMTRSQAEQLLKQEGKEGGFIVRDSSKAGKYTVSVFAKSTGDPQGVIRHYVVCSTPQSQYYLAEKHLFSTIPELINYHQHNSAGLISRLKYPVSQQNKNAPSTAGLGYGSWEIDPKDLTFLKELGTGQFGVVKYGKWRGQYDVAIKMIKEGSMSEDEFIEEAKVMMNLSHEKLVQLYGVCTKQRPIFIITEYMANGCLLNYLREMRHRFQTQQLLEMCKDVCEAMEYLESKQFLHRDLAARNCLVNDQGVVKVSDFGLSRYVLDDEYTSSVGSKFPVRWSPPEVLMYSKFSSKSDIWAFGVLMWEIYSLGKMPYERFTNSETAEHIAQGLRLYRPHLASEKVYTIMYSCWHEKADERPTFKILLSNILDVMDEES
- assay_notes: Recombinant Human Bruton's Tyrosine Kinase (Btk) Inhibition Assay (HTRF KinEASE-TK)
- Format: biochemical
- measurement_conditions: 20 ng/ml rhBtk, 77 μM ATP (KM), 1 μM TK-Biotin substrate, 90 min; read-out: hBTK IC50
The following molecules are shown together with reported IC50 values.

{"molecule": "CN(C)C(=O)N1CC=C(c2cc3c(-c4cccc(N5CCOc6cc(C(C)(C)O)ccc6C5=O)c4CO)ccnc3[nH]2)CC1 [Example P-10]", "study_system": "human Bruton's Tyrosine Kinase (Btk) (Homo sapiens (Human), UniProt Q06187)", "scale_unit": "nM", "relation_qualifier": "=", "IC50": 6}
{"molecule": "Cc1c(-c2ncnc3[nH]c(C4CCN(CCCO)CC4)cc23)cccc1N1CCOc2cc(C3CC3)ccc2C1=O [Example P-3]", "study_system": "human Bruton's Tyrosine Kinase (Btk) (Homo sapiens (Human), UniProt Q06187)", "scale_unit": "nM", "relation_qualifier": ">", "IC50": 1000}
{"molecule": "O=C1c2ccc(C3CC3)cc2OCCN1c1cccc(-c2ccnc3[nH]c(-c4ccc(CN5CCN(S(=O)(=O)C6CC6)CC5)cn4)cc23)c1CO [Example I-10]", "study_system": "human Bruton's Tyrosine Kinase (Btk) (Homo sapiens (Human), UniProt Q06187)", "scale_unit": "nM", "relation_qualifier": "=", "IC50": 7}
{"molecule": "CN1CC(Oc2ccc(-c3cc4c(-c5cccc(N6CCOc7cc(C8CC8)ccc7C6=O)c5CO)ncnc4[nH]3)cc2)C1 [Example G-2]", "study_system": "human Bruton's Tyrosine Kinase (Btk) (Homo sapiens (Human), UniProt Q06187)", "scale_unit": "nM", "relation_qualifier": "=", "IC50": 5}
{"molecule": "CCN1CC(N2CC=C(c3cc4c(-c5cccc(N6CCOc7cc(C8CC8)cc(F)c7C6=O)c5CO)ccnc4[nH]3)CC2)C1 [Example R-2]", "study_system": "human Bruton's Tyrosine Kinase (Btk) (Homo sapiens (Human), UniProt Q06187)", "scale_unit": "nM", "relation_qualifier": "=", "IC50": 1.5}
{"molecule": "CC1(O)CCC(n2cc(-c3cc4c(-c5cccc(N6CCOc7cc(C8CC8)ccc7C6=O)c5CO)ccnc4[nH]3)cn2)CC1 (stereo not shown) [Example F-3]", "study_system": "human Bruton's Tyrosine Kinase (Btk) (Homo sapiens (Human), UniProt Q06187)", "scale_unit": "nM", "relation_qualifier": "=", "IC50": 3.8}
{"molecule": "Cc1c(-c2ncnc3[nH]c(-c4ccc(C(=O)N5CC(O)C5)cc4)cc23)cccc1N1CCOc2cc(C3CC3)ccc2C1=O [Example K-8]", "study_system": "human Bruton's Tyrosine Kinase (Btk) (Homo sapiens (Human), UniProt Q06187)", "scale_unit": "nM", "relation_qualifier": "=", "IC50": 360}

###

- study_system: human Bruton's Tyrosine Kinase (Btk) (Homo sapiens (Human), UniProt Q06187)
- assay_notes: Recombinant Human Bruton's Tyrosine Kinase (Btk) Inhibition Assay (HTRF KinEASE-TK)
- Assay type: biochemical
- measurement_conditions: 20 ng/ml rhBtk, 77 μM ATP (KM), 1 μM TK-Biotin substrate, 90 min; read-out: hBTK IC50

{"compound": "O=C1c2ccc(C3CC3)cc2OCCN1c1cccc(-c2ccnc3[nH]c(-c4cnn(C5COC5)c4)cc23)c1CO", "IC50, nM": 3}
{"compound": "CCN1CCC(n2cc(-c3cc4c(-c5cccc(-n6ncc7cc(C8CC8)ccc7c6=O)c5CO)ncnc4[nH]3)cn2)CC1", "IC50, nM": 3}
{"compound": "CC1CN(Cc2ccc(-c3cc4c(-c5cccc(N6CCOc7cc(C8CC8)cc(F)c7C6=O)c5CO)ccnc4[nH]3)nc2)CC(C)N1C (stereo not drawn)", "IC50, nM": 1.7}
{"compound": "Cc1c(-c2ncnc3[nH]c(-c4ccc(C(=O)N5CCN(C)CC5)cc4)cc23)cccc1N1CCOc2cc(C3CC3)ccc2C1=O", "IC50, nM": 20}
{"compound": "O=C1c2c(F)cc(C3CC3)cc2OCCN1c1cccc(-c2ccnc3[nH]c(-c4cnn(C5CCN(C6COC6)CC5)c4)cc23)c1CO", "IC50, nM": 1.7}
{"compound": "Cc1c(-c2ccnc3[nH]c(-c4ccc(CN5CCN(C)CC5)cc4)cc23)cccc1N1CCOc2cc(C3CC3)ccc2C1=O", "IC50, nM": 103}

###

- Tested on: mouse splenocytes
- assay_notes: Inhibition of B Cell Activation as Measured by CD69 Expression in Mouse Splenocytes
- Assay type: cell-based
- measurement_conditions: Splenocyte; C57/BL6 splenocytes, 3 ug/mL goat anti-mouse IgM, 18-20 hrs, CD69+ve cells within CD19; read-out: Mouse spleenocyte IC50
The following molecules are shown together with reported IC50 values.

{"molecule": "CCN1CCC(n2cc(-c3cc4c(-c5cccc(-n6ncc7cc(C8CC8)ccc7c6=O)c5CO)ncnc4[nH]3)cn2)CC1 [Example D-13]", "IC50": "65 nM"}
{"molecule": "CC(C)N1CC(n2cc(-c3cc4c(-c5cccc(N6CCOc7cc(C8CC8)ccc7C6=O)c5CO)ccnc4[nH]3)cn2)C1 [Example D-8]", "IC50": "97 nM"}
{"molecule": "CN1CC(n2cc(-c3cc4c(-c5cccc(N6CCOc7cc(C8CC8)ccc7C6=O)c5CO)ccnc4[nH]3)cn2)C1 [Example D-7]", "IC50": "43 nM"}
{"molecule": "CCN1CC(n2cc(-c3cc4c(-c5cccc(N6CCOc7cc(C8CC8)ccc7C6=O)c5CO)ccnc4[nH]3)cn2)C1 [Example D-10]", "IC50": "76 nM"}
{"molecule": "Cc1c(-c2ncnc3[nH]c(-c4ccc(N5CCN(C)CC5)cc4)cc23)cccc1N1CCOc2cc(C3CC3)ccc2C1=O [Example C-3]", "IC50": "175 nM"}
{"molecule": "CCN1CC(C(=O)N2CC=C(c3cc4c(-c5cccc(N6CCOc7cc(C8CC8)cc(F)c7C6=O)c5CO)ccnc4[nH]3)CC2)C1 [Example R-5]", "IC50": "51 nM"}
{"molecule": "CC1(O)CCC(n2cc(-c3cc4c(-c5cccc(N6CCOc7cc(C8CC8)ccc7C6=O)c5CO)ccnc4[nH]3)cn2)CC1 (stereo not shown) [Example F-3]", "IC50": "92 nM"}
{"molecule": "O=C1c2ccc(C3CC3)cc2OCCN1c1cccc(-c2ncnc3[nH]c(-c4ccc(CN5CCOCC5)cc4)cc23)c1CO [Example B-5]", "IC50": "60 nM"}
{"molecule": "CCN1CCN(Cc2ccc(-c3cc4c(-c5cccc(N6CCOc7cc(C8CC8)ccc7C6=O)c5CO)ccnc4[nH]3)nc2)CC1 [Example I-4]", "IC50": "23 nM"}
{"molecule": "CN1CCC(n2cc(-c3cc4c(-c5cccc(N6CCOc7cc(C8CC8)ccc7C6=O)c5CO)ncnc4[nH]3)cn2)CC1 [Example D-1]", "IC50": "32 nM"}
{"molecule": "CCN(CC)C(=O)N1CC=C(c2cc3c(-c4cccc(N5CCOc6cc(C7CC7)cc(F)c6C5=O)c4CO)ccnc3[nH]2)CC1 [Example P-19]", "IC50": "20 nM"}
{"molecule": "O=C1c2ccc(C3CC3)cc2OCCN1c1cccc(-c2ccnc3[nH]c(-c4ccc(CN5CCN(CC(F)(F)F)CC5)cn4)cc23)c1CO [Example I-9]", "IC50": "47 nM"}
{"molecule": "CN1CCN(Cc2ccc(-c3cc4c(-c5cccc(N6CCOc7cc(C8CC8)ccc7C6=O)c5CO)ccnc4[nH]3)cc2)CC1 [Example B-13]", "IC50": "9 nM"}

###

- Tested on: mouse splenocytes
- assay_notes: Inhibition of B Cell Activation as Measured by CD69 Expression in Mouse Splenocytes
- Format: cell-based
- measurement_conditions: Splenocyte; C57/BL6 splenocytes, 3 ug/mL goat anti-mouse IgM, 18-20 hrs, CD69+ve cells within CD19; read-out: Mouse spleenocyte IC50
pIC50: −log10 of the molar value.

{"compound_structure_string": "CN1CCN(c2ccc(-c3cc4c(-c5cccc(N6CCOc7cc(C8CC8)ccc7C6=O)c5CO)ncnc4[nH]3)cc2)CC1", "pIC50": 7.44}
{"compound_structure_string": "CN1CCC(F)(c2ccc(-c3cc4c(-c5cccc(N6CCOc7cc(C8CC8)ccc7C6=O)c5CO)ccnc4[nH]3)cc2)CC1", "pIC50": 6.75}
{"compound_structure_string": "CC(=O)N1CC(N2CC=C(c3cc4c(-c5cccc(N6CCOc7cc(C8CC8)cc(F)c7C6=O)c5CO)ccnc4[nH]3)CC2)C1", "pIC50": 7.12}
{"compound_structure_string": "CN1CCN(Cc2ccc(-c3cc4c(-c5cccc(N6CCOc7cc(C8CC8)ccc7C6=O)c5CO)ncnc4[nH]3)cc2)CC1", "pIC50": 7.40}
{"compound_structure_string": "CN1CCN(Cc2ccc(-c3cc4c(-c5cccc(-n6ncc7cc(C8CC8)ccc7c6=O)c5CO)ncnc4[nH]3)cc2)CC1", "pIC50": 7.70}
{"compound_structure_string": "CN1CC(Oc2ccc(-c3cc4c(-c5cccc(N6CCOc7cc(C8CC8)ccc7C6=O)c5CO)ncnc4[nH]3)cc2)C1", "pIC50": 7.27}
